Measured binding signal, listed per entry.
# ASSAY TARGET: HNF4alpha8 (COS-7 nuclear extract) (Homo sapiens, UniProt P41235-5 1-452)
# Sequence: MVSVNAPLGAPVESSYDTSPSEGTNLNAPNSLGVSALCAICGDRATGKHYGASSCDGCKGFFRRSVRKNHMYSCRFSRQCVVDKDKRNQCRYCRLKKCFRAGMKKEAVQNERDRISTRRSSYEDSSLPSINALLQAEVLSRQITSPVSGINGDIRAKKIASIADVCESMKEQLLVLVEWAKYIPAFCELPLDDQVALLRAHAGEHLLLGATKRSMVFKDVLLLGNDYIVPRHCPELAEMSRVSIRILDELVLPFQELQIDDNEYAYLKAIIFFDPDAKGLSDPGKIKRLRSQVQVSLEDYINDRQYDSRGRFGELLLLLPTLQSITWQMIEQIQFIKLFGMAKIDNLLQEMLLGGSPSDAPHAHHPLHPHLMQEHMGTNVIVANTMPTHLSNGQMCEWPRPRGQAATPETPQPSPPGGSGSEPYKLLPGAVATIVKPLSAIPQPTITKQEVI
# TEST METHOD NOTES: protein-binding microarray; COS-7 nuclear extract on double-stranded Agilent 4x180k PBM; binding buffer, salt, pH and temperature not given in the material; high values mean tight binding
# REPORTED CONDITIONS: chain copies: 2; label: 3' end of strand 1 on the slide; dsDNA, one strand shown
Over roughly 18,000 sequences, “log2 normalized intensity” has its median near 0.36; the highest 2% begin near 7.3. Only a selection was taken, and the highest values are over-represented in it overall.
The answer consists of two parts: a number and, after it, its unit.

Reference set, count: 3
[
  {
    "RESIDUE CODES": "GGGGACCTTTGGCCTTTACCTGTTACTTATGCCTAGGGAGATTAGAGTATCGGTCGA",
    "binding signal": "4.06 log2 normalized intensity"
  },
  {
    "RESIDUE CODES": "TTACCGGTGTGACTTTGGTTGGATTTCTTGGCCTAGGGAGATTAGAGTATCGGTCGA",
    "binding signal": "1.56 log2 normalized intensity"
  },
  {
    "RESIDUE CODES": "GTAGAGACCTGTCTTCCTGGTGACCTTTGTGCCTAGGGAGATTAGAGTATCGGTCGA",
    "binding signal": "7.95 log2 normalized intensity"
  }
]

Briefly, binding signal measured for ACTGAATGTGACCTTTTGGACCACAGAGTGGCCTAGGGAGATTAGAGTATCGGTCGA : 5.97 log2 normalized intensity
